tested on: third instar T. ni larvae; assay: Leaf disk choice feeding deterrence bioassay; type: in vivo, Trichoplusia ni; conditions: Trichoplusia, foliar, Table 5, 1,2-dialkoxybenzenes; feeding deterrence at 50 μg/cm^2; read-out: FD (%), mean ± SE (n = 25)
Listed below: pest or weed control at 50 µg/cm2, 50 µg/cm2 values for each entry.
recorded.metric: pest or weed control at 50 µg/cm2, 50 µg/cm2 (%)

1. C=CCOc1ccccc1OCC=C: 70.4
2. CCCOc1ccccc1O: -12
3. CC(C)CCOc1ccccc1OCCC(C)C: 69.9

This collection of values is drawn from patent US9125406B2.
